Item-by-item account of composite z-score
- Tested on: Plasmodium falciparum Sir2 (PF13_0152, Sir2A)
- METHOD: pfSir2 binders on small-molecule microarrays, primary screen, biochemical, small-molecule microarray, 635 nm fluorescence (AID 1098);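 also: score merges spot fluorescence intensity with its signal-to-noise ratio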
- CONDITION INFO: small-molecule microarray binding, fluorescence 635 nm; higher = more signal

INSERT INTO assay_data (compound, assay_metric, readout_value) VALUES
  ('COCCCNC(=O)[C@@]1(Sc2ccc(C)cc2)CC(=O)N(Cc2ccccc2Cl)[C@@H]1c1ccc(CO)cc1I', 'composite z-score', 0.515),
  ('CCCCC(=C=CC[C@H](O)c1ccc(OCCO)cc1)C[C@H](O)c1cc(Cl)cc(Cl)c1O', 'composite z-score', 1.06),
  ('[N-]=[N+]=NCc1ccccc1[C@@H]1OC(c2ccc(OCCCO)cc2)=N[C@]1(Cc1ccccc1)C(=O)NCCN1CCOCC1', 'composite z-score', 1.03),
  ('[N-]=[N+]=NCc1ccccc1[C@H]1OC(c2ccc(OCCCO)cc2)=N[C@@]1(Cc1ccccc1)C(=O)NCCN1CCOCC1', 'composite z-score', 1.23),
  ('[N-]=[N+]=Nc1ccccc1C[C@]1(C(=O)NCc2ccccc2)COC(c2ccc(OCCCO)cc2)=N1', 'composite z-score', 1.26);

Exercise: Tell me its composite z-score given CCN(CC)c1ccc(N2CC=CC34O[C@@H]5C=CCCOC(=O)C5[C@H]3C(=O)N(CCO)[C@@H]4C2=O)cc1 (stereo not given in full) as the entry.
Solution: -0.0437

Exercise: Tell me its composite z-score given CCc1cccc(NC(=O)O[C@H]2[C@H](OC(=O)Nc3ccccc3)[C@H](OC(=O)Nc3ccccc3)[C@@H](OC)O[C@@H]2CO)c1 as the entry.
Solution: 1.41

Exercise: Tell me its composite z-score given COCCOC(=O)N1C(=O)[C@@]2(c3cc(C#CCCO)ccc31)[C@H](c1ccccc1OCCO)N1[C@H](c3ccccc3)[C@H](c3ccccc3)OC(=O)[C@H]1[C@@H]2C(=O)N1CCCCCCC1 as the entry.
Solution: 1.69

Exercise: Tell me its composite z-score given COC(=O)[C@@]1(Cc2ccccc2)[C@H]2c3cc(C(=O)N(C)C)n(CCn4cc([N+](=O)[O-])nc4C)c3C[C@H]2CN1C(=O)c1ccccc1 as the entry.
Solution: 1.72

Exercise: Tell me its composite z-score given [N-]=[N+]=NC[C@H](Cc1ccccc1)NC(=O)c1ccccc1 as the entry.
Solution: -0.554

* * *

Item-by-item account of z-score
- METHOD: cell viability in Huh7 cells, primary screen, cytotoxicity control for HCV replication inhibitor project, CellTiter-Glo luminescence, basal, 48 h (AID 1143);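 also: Huh7 hepatoma cells carrying a hepatitis C replication reporter with no stimulus; test concentration not given here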
- CONDITION INFO: Huh7 HCV replicon, higher = more signal, called active from +8 up or from −8 down
Give the figure by itself; no unit, no explanation.

// solved cases for z-score follow
INSERT INTO results (compound, readout_value) VALUES
  ('C=CCN1C(=O)[C@]2(O[C@H](CCO)[C@@H]([Si](C)(C)c3ccc(OC)cc3)[C@@H]2C)c2cc(NC(=O)c3ccc(OC)cc3)ccc21', -7.99),
  ('COC(=O)C(CC#Cc1ccc2c(c1)[C@]1(C(=O)N2)[C@H](c2ccc(OCCO)cc2)N2[C@H](c3ccccc3)[C@H](c3ccccc3)OC(=O)[C@H]2[C@@H]1C(=O)N1CCN(c2ncccn2)CC1)C(=O)OC', -0.339),
  ('CN1C(=O)C2C=CC(C(O)c3ccc(I)cc3)N(Nc3ccccc3)C2C1=O (configuration not stated)', 0.134);

Exercise: Tell me its z-score given O=C1C2C=CC(C(O)C=Cc3ccc([N+](=O)[O-])cc3)N(Nc3ccccc3)C2C(=O)N1c1ccccc1 (configuration not stated) as the entry.
Solution: -0.132

Exercise: Tell me its z-score given Cc1ccc(S[C@]2(C(=O)NC(C)C)CC(=O)N(Cc3ccccc3Cl)[C@@H]2c2ccc(CO)cc2)cc1 as the entry.
Solution: -2.67

Exercise: Tell me its z-score given CO[C@H]1O[C@H](CO)[C@@H](OC(=O)CCc2ccccc2)[C@H](OC(=O)c2cc3ccccc3[nH]2)[C@H]1OC(=O)c1cc2ccccc2[nH]1 as the entry.
Solution: -5.71

Exercise: Tell me its z-score given Cc1cccc([C@H]2C[C@H]3C(I)=C[C@@H]2C(=O)[C@]32CO2)c1 as the entry.
Solution: -0.478
